ASSAY_TEXT: acute toxicity by injection into the peritoneal cavities of mice
SETUP_CONDITIONS: in vivo; ip mouse
Method: To illustrate one of the pharmacological effects of these compounds comparative experiments were carried out on the coronary blood flow increasing action, which was measured in rabbits by the Langendorff method, and on acute toxicity using the said trimetazidine as control, with the results being shown in Table 1. […] 1387 (1960), and the acute toxicity was measured by injection into the peritoneal cavities of mice.
Recorded LD50 values for a group of compounds are listed next.
Express the result in mg/kg but write the number alone.

Some solved entries appear below for comparison.
COc1ccc(CN2CCNCC2)c(OC)c1OC.Cl.Cl [Trimetazidine, reference compound]    390
COc1cc(CN2CCN(CCC(c3ccccc3)c3ccccc3)CC2)cc(OC)c1OC.Cl.Cl    89
Cl.Cl.c1ccc(CN2CCN(CCC(c3ccccc3)c3ccccc3)CC2)cc1    101

Now consider a different compound.
Data request: What does the record list as LD50 for `COc1ccc(CN2CCN(CCC(c3ccccc3)c3ccccc3)CC2)cc1OC.Cl.Cl` ?
Data returned: 66
